System: EKVX NSCLC
Assay: NCI tumour cell line growth inhibition, 48 h
Recorded GI50 for the following molecules

smilesStructure	GI50
COC(=O)c1cc(NC(=O)c2cc(NC(=O)c3cc([N+](=O)[O-])n(C)c3)cn2C)cn1C	> 100 µM
OCc1ccc(-c2csc(-c3ccc(CO)o3)c2)o1	21.3 µM
Cc1ccc(C)c2c1C(=O)N(c1ccc(F)cc1F)C2=O	> 100 µM

---

# log10 TGI values compiled below
Test system: SR leukemia
Test: NCI tumour cell line growth inhibition, 48 h
observable: log10 TGI (log10 of the value in µM)

compound	reported
CC(C)=CC1C(C(=O)Oc2ccccc2C(C)C)C1(C)C (configuration not stated)	1.79
CC(=O)OCC12CN(C#N)C3C4COC(CC41)C1(C(=O)N(C)c4ccccc41)C32 (configuration not stated)	1.83
C=C(C)[C@@H](O)[C@H](O)C[C@H](C)C1CC[C@]2(C)C1=CC[C@@H]1[C@@]3(C)CC[C@@H](OC(C)=O)C(C)(C)[C@@H]3C[C@@H](OC3OC(COC(C)=O)C(O)C(O)C3O)[C@]12C (some centres not stated)	0.62
CCCCCCCCCCCCCC[n+]1ccccc1	0.47
CN(C)C1CCN(Cc2ccc(NC(=O)c3cncc(C#Cc4cnc(N)c5ncccc45)c3)cc2C(F)(F)F)CC1	1.70
